- Experimental Target: Homo sapiens NCBD (nuclear coactivator binding domain) from CREBBP (Homo sapiens (human))
- Protocol Details: ITC
Quantity: Kd (µM)
Express it in µM; write the number only.

Query: Tell us which Kd value is on record for Strongylocentrotus purpuratus CID (CREBBP-binding domain of NCOA) (domain or fragment)
Result: 4.8

* * *

- Experimental Target: Strongylocentrotus purpuratus NCBD (nuclear coactivator binding domain of CREBBP/p300) (Strongylocentrotus purpuratus (purple sea urchin))
- Protocol Details: ITC
Quantity: Kd (µM)
Express it in µM; write the number only.

Query: Tell us which Kd value is on record for Homo sapiens CID (CREBBP-binding domain) from NCOA3 (ACTR) (from UniProt Q9Y6Q9 1045-1086) (domain or fragment)
Result: 13
